B1: library; a variant is named by its letters at N, in order (parent)
chain: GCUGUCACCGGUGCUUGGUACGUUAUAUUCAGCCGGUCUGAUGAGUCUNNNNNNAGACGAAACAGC

variants of: B1; assay: normalized RNA/DNA level with ligand (relative to sTRSVctl = 100) (log10 (% of sTRSVctl)); HEK293T overexpressing SLC46A1; ligand concentration (+) RNA-Seq: 6 mM; higher = less ribozyme self-cleavage, higher mRNA level; conditions: with (6R,S)-folinic acid; ligand present: yes
Measurement Name: normalized RNA/DNA level with ligand (log10)
The response must contain the number and no unit.

Record excerpt, results attached:
{"Variant Notation": "UAUUGC", "Reported": 1.96}
{"Variant Notation": "CCCUGA", "Reported": 2.1}
{"Variant Notation": "AUGCGA", "Reported": 2.01}

(Q) Recorded normalized RNA/DNA level with ligand (log10) for UCCGAA , please?
(A) 1.98

(Q) # query: normalized RNA/DNA level with ligand (log10) of entry GCCGGC
(A) 1.98

(Q) Give its normalized RNA/DNA level with ligand (log10) value. Item: CGUACA
(A) 2.04

(Q) Could you share which normalized RNA/DNA level with ligand (log10) value was measured for AUUAGC ?
(A) 2.02

(Q) Field request: normalized RNA/DNA level with ligand (log10) | item: CACACU
(A) 2.03

(Q) # get_value(readout='normalized RNA/DNA level with ligand (log10)', item= CAAGAC )
(A) 2.03

(Q) For the variant AGAUAA , what normalized RNA/DNA level with ligand (log10) is on record?
(A) 1.98

(Q) Query (variant): CCUCGU ; field requested: normalized RNA/DNA level with ligand (log10)
(A) 2.01

(Q) Record request: normalized RNA/DNA level with ligand (log10) value, item AGCCAG
(A) 2.04

(Q) normalized RNA/DNA level with ligand (log10) for UCGACA ?
(A) 2.02

(Q) Field request: normalized RNA/DNA level with ligand (log10) | item: AUAGAC
(A) 1.98

(Q) Give the measured normalized RNA/DNA level with ligand (log10) of GAAGCU .
(A) 2.04

(Q) Endpoint output: normalized RNA/DNA level with ligand (log10) of CCGAGA . Value?
(A) 2.01

(Q) // returns reported normalized RNA/DNA level with ligand (log10) for input GAGAAC
(A) 2.02

(Q) Form field: reported normalized RNA/DNA level with ligand (log10) of ACCGUU
(A) 2.01

(Q) What does the record list as normalized RNA/DNA level with ligand (log10) for AAUAGA ?
(A) 2.01

(Q) What measured normalized RNA/DNA level with ligand (log10) goes with UGUUGA ?
(A) 2.01

(Q) Any idea what its normalized RNA/DNA level with ligand (log10) is? The variant is UUAAGU
(A) 2.02

(Q) State the recorded normalized RNA/DNA level with ligand (log10) for this entry: UUAUCU
(A) 2.03
